System: HepG2 cells
test_name: HepG2 cell viability assay (CCK-8)
Assay type: cell-based, human
run_conditions: Homo sapiens, HepG2, 72 h
attribute_measured: IC50 (nM)

Here's what some known entries look like.
[
  {
    "molecule": "C[C@H](C(=O)Nc1ncc(C(F)(F)F)s1)c1cccc(-c2cnc(NC(=O)/C=C/CN3CCC3)cn2)c1",
    "experimental_target": "HepG2 cells",
    "meas_value": 14
  },
  {
    "molecule": "COc1nc(-c2cccc([C@H](C)C(=O)Nc3ncc(C(F)(F)F)s3)c2)cnc1NC(=O)/C=C/CN(C)C",
    "experimental_target": "HepG2 cells",
    "meas_value": 2.6
  }
]

[I] C[C@H](C(=O)Nc1ncc(Cl)s1)c1cccc(-c2cnc(NC(=O)/C=C/CN3CC4CC3CO4)cn2)c1 (stereo partly shown)
[II] CC(C(=O)Nc1ncc(C(F)(F)F)s1)c1cncc(-c2cnc(NC(=O)/C=C/CN3CC4CC3CO4)cn2)c1 (stereo not shown)
Hi there! Just curious which has the higher IC50 between I and II . Identify your pick by its label.
I

[P] CC(C(=O)Nc1ncc(C2CC2)s1)c1cccc(-c2ccc(NC(=O)/C=C/CN(C)C)nc2)c1 (stereo not shown)
[Q] C[C@H](C(=O)Nc1ncc(C(F)(F)F)s1)c1cccc(-c2cnc(NC(=O)/C=C/CN(C)C)c(F)c2)c1
Hi there! Just curious which has the higher IC50 between P and Q . Identify your pick by its label.
P
